Each entry below lists one item and its recorded IC50 value.
Tested on: HeLa cells (human cervical carcinoma)
Test: MTT cytotoxicity assay, HeLa
Format: cell-based
Settings: 48 h incubation

[
  {
    "COMPOUND": "Cc1ccnc(-c2cc(CN)ccn2)c1.F[P-](F)(F)(F)(F)F.[Ir+3].[c-]1ccccc1-c1ccccn1.[c-]1ccccc1-c1ccccn1 [Ir-NH2, [Ir(C^∧N)2(N^∧N-NH2)]PF6]",
    "U": "µM",
    "IC50": 21
  },
  {
    "COMPOUND": "N.N.[Cl][Pt][Cl] [cis-Pt, cisplatin, reference compound]",
    "U": "µM",
    "IC50": 7.59
  },
  {
    "COMPOUND": "Cc1ccnc(-c2cc(CNC(=O)CCCCC3CCSS3)ccn2)c1 (stereo not drawn) [N^∧N-LA]",
    "U": "µM",
    "IC50": 67.5
  }
]
